Source of measurements: the supplement of paper PMC9732359

# maps each entry to its protein stability index
experiment: protein stability index of a GFP-peptide fusion (yeast GPS) (PSI 1-4); higher = more stable; sorted into four equal gates, so the index is relative within each strain; conditions: pdr5∆
Returns: the value as a bare number; no unit string appended.

ENTRY SEQUENCE	protein stability index
MAMNITPRLYTDRSRDF [RPB2]	3
LLETKLRQQYEIELKKL [SWI1]	2.96
VDSRTKIRMLTQAAEFL [IRR1]	2.96
TLQLGQEFQLKQINHQG [RPB4]	3.28
TMTYEEVAKRLVELMFI [FAS1]	2.22
IAKFERSEEEVTKLNVL [YIL149C/MLP2]	3.46

// next item, protein stability index requested
Req: What does the record list as protein stability index for LEDMVFPTEIVGKRVRY [RPS7B] ?
Resp: 1.76
